# System: lambsquarters (Chenopodium album)
# assay_comment: Test B postemergence
# Type: in vivo
# assay_context: Rate 125 g/ha, scale 0 (no effect) to 100 (complete control), 13 to 15 days
Label scheme for Plant response rating, Lambsquarters: lower than 80 is -1, 80 and above is 1.

molecule: CCC(C)Oc1ccn(C2CCN(c3cccc(C(F)(F)F)c3)C2=O)n1 (stereo not drawn)
class_name: -1

molecule: CC1(c2ccn(C3SCN(c4cccc(C(F)(F)F)c4)C3=O)n2)CC1 (stereo not drawn)
class_name: -1

molecule: CC(C)(C)c1ccn(C2CCN(c3cccc(C(F)(F)F)c3)C2=S)n1 (stereo not drawn)
class_name: 1

molecule: CCC(CC)c1ccn(C2CCN(c3ccc(C)c(OC)c3)C2=O)n1 (stereo not drawn)
class_name: -1

molecule: COC(=O)c1cccc(N2CCC(n3ccc(C(C)(C)C)n3)C2=O)c1 (stereo not drawn)
class_name: -1

molecule: Cc1ccn(C2CCN(c3cccc(C(F)(F)F)c3)C2=O)n1 (stereo not drawn)
class_name: -1

molecule: CC(C)(C)c1ccn(C2CCN(c3cccc(I)c3)C2=O)n1 (stereo not drawn)
class_name: 1

---

Quick list: Plant response rating, Morningglory per entry.
# Tested on: morningglory (Ipomoea hederacea)
# assay_comment: Test C preemergence
# Type: in vivo
# assay_context: Rate 62 g/ha; scale 0 to 100, 0 no effect, 100 complete control
# From the text: […]
quantity: Plant response rating, Morningglory

compound: CC(C)c1ccn(C2OCN(c3cccc(C(F)(F)F)c3)C2=O)n1 (stereo not shown)
target_entity: morningglory (Ipomoea hederacea)
quantity: Plant response rating, Morningglory
observed: 20
//
compound: CC(C)(C)c1ccn(C2CCN(c3ccc(Cl)c(Cl)c3)C2=O)n1 (stereo not shown)
target_entity: morningglory (Ipomoea hederacea)
quantity: Plant response rating, Morningglory
observed: 0
//
compound: CC1(c2ccn(C3SCN(c4cccc(OC(F)(F)F)c4)C3=O)n2)CC1 (stereo not shown)
target_entity: morningglory (Ipomoea hederacea)
quantity: Plant response rating, Morningglory
observed: 0
//
compound: O=C1C(n2ccc(C3CC3)n2)CCN1c1cccc(C(F)(F)F)c1 (stereo not shown)
target_entity: morningglory (Ipomoea hederacea)
quantity: Plant response rating, Morningglory
observed: 20
//
compound: CCC(C)c1ccn(C2SCN(c3cccc(C(F)(F)F)c3)C2=O)n1 (stereo not shown)
target_entity: morningglory (Ipomoea hederacea)
quantity: Plant response rating, Morningglory
observed: 0
//
compound: O=C1C(n2ccc(C3CCC3)n2)SCN1c1cccc(C(F)(F)F)c1 (stereo not shown)
target_entity: morningglory (Ipomoea hederacea)
quantity: Plant response rating, Morningglory
observed: 0
//
compound: CCC(C)c1ccn(C2OCN(c3cccc(OC(F)(F)F)c3)C2=O)n1 (stereo not shown)
target_entity: morningglory (Ipomoea hederacea)
quantity: Plant response rating, Morningglory
observed: 0

---

# System: giant foxtail (Setaria faberii)
# assay_comment: Test B postemergence
# Assay type: in vivo
# assay_context: Rate 500 g/ha, scale 0 to 100, 0 is no effect, 100 is complete control, 13 to 15 days
Label scheme for Plant response rating, Foxtail, Giant: lower than 30 is Condition not met, 30 and above is Condition met.

compound: CCC(C)c1ccn(C2SCN(c3cccc(C(F)(F)F)c3)C2=O)n1 (stereo not drawn)
class_name: Condition met
//
compound: CCOc1cc(N2CCC(n3ccc(C(C)(C)C)n3)C2=O)ccc1C (stereo not drawn)
class_name: Condition not met
//
compound: O=C1C(n2cccn2)SCN1c1cccc(C(F)(F)F)c1 (stereo not drawn)
class_name: Condition not met
//
compound: CCC(C)c1ccn(C2OCN(c3cccc(OC(F)(F)F)c3)C2=O)n1 (stereo not drawn)
class_name: Condition met
//
compound: CC(C)(C)c1ccn(C2CCN(c3cccc(I)c3)C2=O)n1 (stereo not drawn)
class_name: Condition met
//
compound: CCCC(C)c1ccn(C2OCN(c3cccc(OC(F)(F)F)c3)C2=O)n1 (stereo not drawn)
class_name: Condition met
//
compound: CC(C)c1ccn(C2SCN(c3cccc(OC(F)F)c3)C2=O)n1 (stereo not drawn)
class_name: Condition met
//
compound: CC1(c2ccn(C3SCN(c4cccc(OC(F)(F)F)c4)C3=O)n2)CC1 (stereo not drawn)
class_name: Condition met
//
compound: CCC(C)Oc1ccn(C2CCN(c3cccc(C(F)(F)F)c3)C2=O)n1 (stereo not drawn)
class_name: Condition not met
//
compound: CC(C)(C)c1ccn(C2OCN(c3cccc(OC(F)(F)F)c3)C2=O)n1 (stereo not drawn)
class_name: Condition met
//
compound: CCCC(C)c1ccn(C2CCN(c3cccc(C(F)(F)F)c3)C2=O)n1 (stereo not drawn)
class_name: Condition not met
//
compound: CC(C)(C)c1ccn(C2CCN(c3cccc([S+]([O-])C(F)(F)F)c3)C2=O)n1 (stereo not drawn)
class_name: Condition not met
//
compound: CC(C)(C)c1ccn(C2SCN(c3cccc(C(F)(F)F)c3)C2=O)n1 (stereo not drawn)
class_name: Condition met
//
compound: CC(C)(C)c1ccn(C2CCN(c3cc(C(F)(F)F)cc(C(F)(F)F)c3)C2=O)n1 (stereo not drawn)
class_name: Condition not met
//
compound: CCC(CC)c1ccn(C2CCN(c3ccc(C)c(OC)c3)C2=O)n1 (stereo not drawn)
class_name: Condition not met
//
compound: CCCC(C)c1ccn(C2OCN(c3cccc(C(F)(F)F)c3)C2=O)n1 (stereo not drawn)
class_name: Condition met
